Measurement Type: melting point

Would you please look over these solved cases?
* O=C(NC1CCN(S(=O)(=O)F)CC1)c1ccccc1 | 205 to 207 °C
* O=c1ccc2cc(OS(=O)(=O)F)ccc2o1 | 85.3 to 87.9 °C
* CC(=O)c1c(OS(=O)(=O)F)ccc2c(C)cc(=O)oc12 | 163.8 to 165.2 °C
* Cc1n(S(=O)(=O)F)cc[n+]1C.O=S(=O)([O-])C(F)(F)F | 58 to 60 °C
* CC(C)c1n(S(=O)(=O)F)cc[n+]1C.O=S(=O)([O-])C(F)(F)F | 77 to 80 °C

Consider now this further compound.
Enquiry: Consider the compound CC(=O)Nc1ccc(OS(=O)(=O)F)cc1 and give its measured melting point.
Return: 150.3 to 152 °C
